- target-system: SHP2 (full length) (Homo sapiens)
- Construct: SHP2 (full length, diluted to 100 pM final concentration in reaction buffer, BPS bioscience, US); purchased BPS bioscience, US
- Sequence (Q06124 whole entry): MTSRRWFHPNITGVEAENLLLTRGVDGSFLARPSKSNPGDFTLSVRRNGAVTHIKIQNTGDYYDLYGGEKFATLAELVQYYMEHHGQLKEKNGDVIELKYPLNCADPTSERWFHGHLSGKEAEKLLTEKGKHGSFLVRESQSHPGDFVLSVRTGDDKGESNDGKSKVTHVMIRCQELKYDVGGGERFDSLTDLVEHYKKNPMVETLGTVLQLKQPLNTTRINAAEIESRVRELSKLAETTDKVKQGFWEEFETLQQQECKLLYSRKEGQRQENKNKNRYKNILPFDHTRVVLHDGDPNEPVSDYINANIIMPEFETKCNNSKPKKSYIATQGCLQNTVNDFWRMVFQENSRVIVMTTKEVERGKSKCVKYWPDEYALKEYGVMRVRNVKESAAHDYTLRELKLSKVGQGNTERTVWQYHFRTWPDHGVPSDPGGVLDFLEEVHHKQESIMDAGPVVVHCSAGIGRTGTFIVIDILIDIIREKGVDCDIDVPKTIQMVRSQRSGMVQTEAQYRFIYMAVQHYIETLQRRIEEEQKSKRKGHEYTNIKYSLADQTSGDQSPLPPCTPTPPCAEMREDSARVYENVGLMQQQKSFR
- assay-method-text: Phosphatase assay (PTPase assay) with DiFMUP substrate
- Type: biochemical
- condition-summary: SHP2 activated with SHP2 activating peptide; DiFMUP 80 μM, 2 hours; fluorescence; read-out: IC50 (PTPase aS say)
pIC50: −log10 of the molar value.
observed-property: pIC50

Field: example entries. Status: answers known.
COCCn1cnc2ccc(Sc3ncc(N4CCC5(CC4)Cc4ncccc4[C@H]5N)nc3N)c(Cl)c2c1=O
7.00 to 8.52
COC(C)Cn1cnc2ccc(Sc3cnc(N4CCC5(CC4)CO[C@@H](C)[C@H]5N)cn3)c(Cl)c2c1=O (some centres unmarked)
> 8.52
COCCn1cnc2ccc(Sc3cnc(N4CCC5(CC4)Cc4scnc4[C@H]5N)c(C(N)=O)n3)c(Cl)c2c1=O
> 8.52
Cn1c(N2CCN(CCN)CC2)nc(N)c(Sc2ccnc(Cl)c2Cl)c1=O
< 7.00

Sure, the documented pIC50 for N[C@@H]1c2cccnc2CC12CCN(c1cnc(Sc3ccc4ncn(Cc5ccoc5)c(=O)c4c3Cl)cn1)CC2 is > 8.52

* * *

- System: phospho-ERK in MIA PaCa2 or H358 cells
- assay-method-text: Phospho-ERK assay (AlphaLisa)
- Type: cell-based
- condition-summary: 1.5 h, MIA PaCa2 or H358 cells, compound incubated 1.5 hours; read-out: IC50 (p-ERK)
observed-property: IC50

N[C@H]1c2ccccc2CC12CCN(c1cnc(Sc3ccc4ncn(CC5CCOC5)c(=O)c4c3Cl)cn1)CC2 (stereo partly shown)
< 45 nM
Cn1c(N2CCCN(CCCN)CC2)nc(N)c(Sc2cccc(Cl)c2Cl)c1=O
> 1500 nM
CC(=O)Cn1cnc2ccc(Sc3cnc(N4CCC5(CC4)CO[C@@H](C)[C@H]5N)cn3)c(Cl)c2c1=O
< 45 nM

Tested system phospho-ERK in MIA PaCa2 or H358 cells; IC50 recorded for COCCn1cnc2ccc(Sc3cnc(N4CCC5(CC4)Cc4scnc4[C@@H]5N)cn3)c(Cl)c2c1=O was 45 to 1500 nM

Summary: C[C@@H]1OCC2(CCN(c3cnc(Sc4ccc5ncn(Cc6cccc(F)c6)c(=O)c5c4Cl)cn3)CC2)[C@@H]1N , phospho-ERK in MIA PaCa2 or H358 cells, IC50 = 45 to 1500 nM

Observed IC50, phospho-ERK in MIA PaCa2 or H358 cells, Cn1c(N2CCN(CC(N)Cc3cccnc3)CC2)nc(N)c(Sc2cccc(Cl)c2Cl)c1=O (stereo not shown) : > 1500 nM

Entry CNS(=O)(=O)c1cccc(Sc2cnc(N3CCC(C)(N)CC3)cn2)c1Cl , phospho-ERK in MIA PaCa2 or H358 cells data, IC50 value: > 1500 nM

For C[C@@H]1OCC2(CCN(c3cnc(Sc4ccc5ncn(Cc6ccncc6)c(=O)c5c4Cl)cn3)CC2)[C@@H]1N on phospho-ERK in MIA PaCa2 or H358 cells, measured IC50 was 45 to 1500 nM

Entry N[C@@H]1c2cccnc2CC12CCN(c1cnc(Sc3ccc4ncn(CC5CCOC5)c(=O)c4c3Cl)cn1)CC2 (stereo partly shown) under phospho-ERK in MIA PaCa2 or H358 cells had IC50 of < 45 nM

Kindly note: phospho-ERK in MIA PaCa2 or H358 cells, N[C@@H]1c2cccnc2CC12CCN(c1cnc(Sc3ccc4ncn(Cc5cccnc5)c(=O)c4c3Cl)cn1)CC2 , IC50 value reported: < 45 nM
